Consider the following substances; for each one, report its RBC.
# test_settings: rat, in vivo, sc, 50 mg/kg
e = 2'-O-(2-methoxyethyl) (MOE); d = 2'-deoxy (DNA)

State the recorded RBC for this entry: ISIS 416867: MOE gapmer, nucleobases 1275 to 1318 of SEQ ID NO: 1 (Table 8) (antisense ACTGGCAGCGGACGGCATTG; MOE gapmer, wing and gap sizes not given here)
7.8 10^6/μL

Next substance up: ISIS 416860: MOE gapmer, nucleobases 1275 to 1318 of SEQ ID NO: 1 (Table 8) (antisense CGGACGGCATTGGTGCACAG; MOE gapmer, wing and gap sizes not given here)
7.8 10^6/μL

Consider next the substance ISIS 413481: 5-10-5 MOE gapmer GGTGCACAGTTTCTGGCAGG (sugars from the 5' end e5 d10 e5, backbone and methylation of C not given here) in the same way.
7.5 10^6/μL

Likewise for ISIS 413482: 5-10-5 MOE gapmer GGACGGCATTGGTGCACAGT (sugars from the 5' end e5 d10 e5, backbone and methylation of C not given here) ?
7.1 10^6/μL

What about this substance? ISIS 412225: 5-10-5 MOE gapmer GCAGCGGACGGCATTGGTGC (sugars from the 5' end e5 d10 e5, backbone and methylation of C not given here)
7.4 10^6/μL
